B1: LINE1-full (parent)
chain: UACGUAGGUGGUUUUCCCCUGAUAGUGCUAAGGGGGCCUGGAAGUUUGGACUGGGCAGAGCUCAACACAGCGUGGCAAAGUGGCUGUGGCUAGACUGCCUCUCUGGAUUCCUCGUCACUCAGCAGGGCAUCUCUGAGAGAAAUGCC

Variants of: B1
TEST METHOD NOTES: self-cleavage, relative activity (ratio to wild type); higher = more cleavage; in vitro, sequencing; the parent is a self-cleaving ribozyme
Parameter: self-cleavage. Scope: all listed entries.

>  <VARIANT DESIGNATION>
U47G U62A

>  <self-cleavage>
0.03

$$$$
>  <VARIANT DESIGNATION>
A6G U52A

>  <self-cleavage>
0.43

$$$$
>  <VARIANT DESIGNATION>
A77G G97C

>  <self-cleavage>
0.65

$$$$
>  <VARIANT DESIGNATION>
A2G U108A

>  <self-cleavage>
1.02

$$$$
>  <VARIANT DESIGNATION>
G93U

>  <self-cleavage>
0.06

$$$$
>  <VARIANT DESIGNATION>
A77C U115C

>  <self-cleavage>
0.6

$$$$
>  <VARIANT DESIGNATION>
A30U

>  <self-cleavage>
1.1

$$$$
>  <VARIANT DESIGNATION>
U5C G97A

>  <self-cleavage>
0

$$$$
>  <VARIANT DESIGNATION>
U5G A121G

>  <self-cleavage>
0.84

$$$$
>  <VARIANT DESIGNATION>
U91C G137A

>  <self-cleavage>
1.14

$$$$
>  <VARIANT DESIGNATION>
U5C C113A

>  <self-cleavage>
0.36

$$$$
